# System Under Test: UniProtKB P56373
# Sequence (P56373 whole entry): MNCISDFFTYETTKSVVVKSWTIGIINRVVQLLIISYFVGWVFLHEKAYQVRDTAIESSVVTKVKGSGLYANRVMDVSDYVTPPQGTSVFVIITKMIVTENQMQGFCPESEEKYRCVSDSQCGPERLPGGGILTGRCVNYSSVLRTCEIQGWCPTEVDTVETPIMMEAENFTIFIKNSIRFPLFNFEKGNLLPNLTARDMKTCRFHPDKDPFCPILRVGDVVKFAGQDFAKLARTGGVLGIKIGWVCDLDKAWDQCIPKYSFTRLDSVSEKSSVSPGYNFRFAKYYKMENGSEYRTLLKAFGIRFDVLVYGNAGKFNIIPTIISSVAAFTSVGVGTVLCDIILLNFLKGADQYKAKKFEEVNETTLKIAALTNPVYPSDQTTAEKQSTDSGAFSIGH
# Experimental Details: Evaluation of human P2X3 receptor inhibitory activity (Fluo-3 calcium fluorescence, FDSS 3000, ATP stimulation);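 note: stimulus was 50 nM ATP with fluorescence followed for 3 min, and the response per well was peak post-ATP fluorescence divided by the reading at measurement start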
# Format: cell-based
# Conditions Used: human P2X3 receptor, Test Example 1
Measurement Type: pIC50
Keep in mind that pIC50 stands for -log10 of concentration in molar terms.

Examples from the recorded data:
smiles_data=Cn1c(=O)[nH]/c(=N\c2ccc(Oc3cccc(/C=C/C(=O)O)c3)cc2)n(Cc2ccc(Cl)cc2)c1=O recorded_number=8.10
smiles_data=CCOC(=O)C1(Cn2c(=O)[nH]/c(=N\c3ccc4oc(CC)c(C)c4c3)n(Cc3ccc(Cl)cc3)c2=O)CC1 recorded_number=7.77

Next, consider the following compound.
Input: For CCn1c(=O)[nH]/c(=N\c2ccc(Oc3cccc(C(=O)NC#N)n3)cc2)n(Cc2ccc(Cl)cc2)c1=O , what is its reported pIC50?
Output: 9.00
